Molecular target: Tyrosine-protein phosphatase non-receptor type 13 (Homo sapiens) (UniProt Q12923)
Sequence (Q12923 whole entry): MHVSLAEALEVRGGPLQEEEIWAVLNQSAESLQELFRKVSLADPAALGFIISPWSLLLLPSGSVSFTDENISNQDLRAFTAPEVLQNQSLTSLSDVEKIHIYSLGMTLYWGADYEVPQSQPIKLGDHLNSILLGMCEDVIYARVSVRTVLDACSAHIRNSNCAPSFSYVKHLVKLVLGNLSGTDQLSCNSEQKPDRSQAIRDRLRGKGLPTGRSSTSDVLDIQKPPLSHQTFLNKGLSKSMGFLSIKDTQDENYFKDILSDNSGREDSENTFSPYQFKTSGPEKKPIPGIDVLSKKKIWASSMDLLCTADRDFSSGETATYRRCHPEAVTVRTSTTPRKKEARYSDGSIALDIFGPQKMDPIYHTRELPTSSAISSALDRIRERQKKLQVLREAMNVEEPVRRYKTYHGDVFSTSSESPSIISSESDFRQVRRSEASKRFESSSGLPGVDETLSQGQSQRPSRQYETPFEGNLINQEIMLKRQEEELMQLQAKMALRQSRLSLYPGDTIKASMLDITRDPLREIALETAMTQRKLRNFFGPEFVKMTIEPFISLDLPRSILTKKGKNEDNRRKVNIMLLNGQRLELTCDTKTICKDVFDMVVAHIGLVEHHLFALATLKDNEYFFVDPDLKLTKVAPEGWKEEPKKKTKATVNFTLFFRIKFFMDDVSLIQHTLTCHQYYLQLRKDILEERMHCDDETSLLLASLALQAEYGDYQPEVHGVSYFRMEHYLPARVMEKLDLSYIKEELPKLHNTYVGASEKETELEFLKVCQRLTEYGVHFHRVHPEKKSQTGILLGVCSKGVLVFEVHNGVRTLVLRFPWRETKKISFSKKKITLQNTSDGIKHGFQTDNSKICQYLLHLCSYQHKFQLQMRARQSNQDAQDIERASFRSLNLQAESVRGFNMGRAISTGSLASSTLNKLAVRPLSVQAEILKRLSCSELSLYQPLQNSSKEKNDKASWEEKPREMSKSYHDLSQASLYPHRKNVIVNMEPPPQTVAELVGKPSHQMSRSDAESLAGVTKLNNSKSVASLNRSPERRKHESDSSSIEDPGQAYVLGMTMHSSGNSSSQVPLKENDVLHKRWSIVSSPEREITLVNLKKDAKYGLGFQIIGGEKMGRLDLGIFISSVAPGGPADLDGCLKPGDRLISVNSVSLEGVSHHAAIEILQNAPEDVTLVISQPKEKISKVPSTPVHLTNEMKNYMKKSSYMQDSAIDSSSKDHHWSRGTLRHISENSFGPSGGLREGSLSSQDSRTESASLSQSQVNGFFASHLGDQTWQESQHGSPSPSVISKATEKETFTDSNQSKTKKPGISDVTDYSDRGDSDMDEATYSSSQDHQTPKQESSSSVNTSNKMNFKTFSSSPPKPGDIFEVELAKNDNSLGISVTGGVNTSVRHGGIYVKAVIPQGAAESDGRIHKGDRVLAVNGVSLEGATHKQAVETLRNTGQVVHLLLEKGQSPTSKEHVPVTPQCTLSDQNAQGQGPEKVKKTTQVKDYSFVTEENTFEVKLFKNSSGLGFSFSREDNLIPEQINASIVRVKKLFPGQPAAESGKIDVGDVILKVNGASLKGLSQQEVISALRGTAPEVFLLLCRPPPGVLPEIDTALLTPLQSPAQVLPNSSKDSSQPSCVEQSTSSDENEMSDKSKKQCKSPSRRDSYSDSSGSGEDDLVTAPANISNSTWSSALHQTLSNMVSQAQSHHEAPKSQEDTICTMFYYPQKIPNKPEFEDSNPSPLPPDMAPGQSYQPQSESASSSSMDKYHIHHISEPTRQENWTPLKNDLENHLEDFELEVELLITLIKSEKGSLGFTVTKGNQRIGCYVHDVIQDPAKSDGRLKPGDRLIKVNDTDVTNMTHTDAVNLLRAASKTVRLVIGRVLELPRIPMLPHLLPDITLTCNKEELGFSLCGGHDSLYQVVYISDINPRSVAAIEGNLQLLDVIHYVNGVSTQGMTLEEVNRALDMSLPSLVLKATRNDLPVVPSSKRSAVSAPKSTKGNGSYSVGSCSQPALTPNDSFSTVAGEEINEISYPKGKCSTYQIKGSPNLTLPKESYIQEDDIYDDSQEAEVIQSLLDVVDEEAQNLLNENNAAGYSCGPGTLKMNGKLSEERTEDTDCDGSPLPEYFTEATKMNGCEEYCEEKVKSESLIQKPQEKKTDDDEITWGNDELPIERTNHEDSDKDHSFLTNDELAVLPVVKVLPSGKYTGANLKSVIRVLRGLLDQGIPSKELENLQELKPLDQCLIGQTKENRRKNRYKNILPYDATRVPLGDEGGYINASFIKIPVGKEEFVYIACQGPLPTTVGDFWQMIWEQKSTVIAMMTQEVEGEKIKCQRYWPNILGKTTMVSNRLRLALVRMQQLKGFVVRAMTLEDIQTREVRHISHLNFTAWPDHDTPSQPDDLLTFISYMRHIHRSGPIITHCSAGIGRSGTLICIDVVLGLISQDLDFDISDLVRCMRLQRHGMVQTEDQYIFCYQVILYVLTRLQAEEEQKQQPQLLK
Assay: In vitro inhibition of Fas-associated phosphatase-1 binding from HFAP-10cDNA subcloned into bluescript vector
Set-up: concentration or dose not given beside the values
Conditions: concentration not given here
property: inhibition (%)

CC(=O)N[C@@H](CO)C(=O)Nc1ccc(C(=O)N[C@H](C(=O)O)C(C)C)cc1	16.5

(A) CC(=O)N[C@@H](CO)C(=O)N[C@@H](CC(C)C)C(=O)N[C@H](C(=O)O)C(C)C
(B) CC(=O)N[C@@H](CO)C(=O)N[C@@H](CC(C)C)C(=O)N[C@H](C(=O)Oc1nn[nH]n1)C(C)C
Of A and B , whose reported inhibition is the larger number? Please identify the chosen entry by its label. A

* * *

Experiment: Compound (50 mM) was tested in vitro for inhibitory potency against Fas-associated phosphatase-1 binding from HFAP-10cDNA subcloned into the bluescript vector pSK-II(Stratagene)
Non-standard residues stand in square brackets, D forms with d. Residues, ends and D or L forms follow the SMILES beside them. Sta = CC(C)C[C@H](N)[C@@H](O)CC(=O)O; tBuAla = CC(C)(C)C[C@H](N)C(=O)O; Tle = CC(C)(C)[C@H](N)C(=O)O; Nva = CCC[C@H](N)C(=O)O
property: inhibition (%)

Study these solved cases before continuing.
CC(=O)N[C@@H](CO)C(=O)N[C@@H](CC(C)C)C(=O)N[C@H](C(=O)O)C(C)(C)C (Ac-Ser-Leu-[Tle]-OH)	7.2
CC(=O)N[C@@H](CC(C)C)[C@@H](O)CC(=O)N[C@@H](CC(C)C)C(=O)N[C@H](C(=O)O)C(C)C (Ac-[Sta]-Leu-Val-OH)	9.9
CC(=O)N1C[C@H](O)C[C@H]1C(=O)N[C@@H](CC(C)C)C(=O)N[C@H](C(=O)O)C(C)C	2.4

(a) CCC[C@H](NC(=O)[C@H](CC(C)C)NC(=O)[C@H](CO)NC(C)=O)C(=O)O (Ac-Ser-Leu-[Nva]-OH)
(b) CC(=O)N[C@@H](CO)C(=O)N[C@@H](CC(C)C)C(=O)N[C@@H](CC(C)(C)C)C(=O)O (Ac-Ser-Leu-[tBuAla]-OH)
Compare inhibition: is it lower for a or for b ? Please identify the chosen entry by its label. b

* * *

Target: Tyrosine-protein phosphatase non-receptor type 13 (Homo sapiens)
Assay: In vitro inhibition of Fas-associated phosphatase-1 binding from HFAP-10cDNA subcloned into bluescript vector
Set-up: concentration or dose not given beside the values
Details: concentration not given here
Non-standard residues stand in square brackets, D forms with d. Residues, ends and D or L forms follow the SMILES beside them. NMeS = CN[C@@H](CO)C(=O)O
property: inhibition (%)

Study these solved cases before continuing.
COC(=O)[C@@H](NC(=O)[C@H](CC(C)C)NC(=O)[C@H](CO)NC(C)=O)C(C)C (Ac-Ser-Leu-Val-OMe)	-0.5
CC(=O)N(C)[C@@H](CO)C(=O)N[C@@H](CC(C)C)C(=O)N[C@H](C(=O)O)C(C)C (Ac-[NMeS]-Leu-Val-OH)	20.6

(A) CC(=O)N[C@@H](CO)C(=O)N[C@H](CC(C)C)C(=O)N[C@H](C(=O)O)C(C)C
(B) CC(=O)N[C@@H](CO)C(=O)Nc1cccc(C(=O)N[C@H](C(=O)O)C(C)C)c1
Compare inhibition: is it lower for A or for B ? Please identify the chosen entry by its label. A
